Parameter growth AUC normalised to DMSO control: see the listing below.
tested on: P. vulgatus RND KO; test: growth AUC normalised to DMSO control (median) (fraction of control); higher = less growth inhibition, active = hit call of the paper; conditions: 20 µM;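 note: active when median AUC fell below 0.1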
Where a name gives a salt, the structure may show the parent alone.
Just the number.

| Compound | growth AUC normalised to DMSO control |
| --- | --- |
| CCOc1ccc2c(c1)C(C)=CC(C)(C)N2 [Ethoxyquin] | 0.971 |
| Oc1c(Br)cc(Br)c2cccnc12 [Broxyquinoline] | 0.294 |
| CCN(CC)CC(=O)Nc1c(C)cccc1C [Lidocaine hydrochloride] | 1.02 |
| O=C(NC(Cc1cc(=O)[nH]c2ccccc12)C(=O)O)c1ccc(Cl)cc1 (centres undefined) [Rebamipide] | 1.06 |
| NS(=O)(=O)c1cc2c(cc1Cl)NC(CC1CCCC1)NS2(=O)=O (centres undefined) [Cyclopenthiazide] | 0.978 |

// returns reported growth AUC normalised to DMSO control for input CN1C(C(=O)Nc2ccccn2)=C(O)c2sccc2S1(=O)=O [Tenoxicam]
0.97

// returns reported growth AUC normalised to DMSO control for input CCN1CCCC1CNC(=O)c1cc(S(N)(=O)=O)ccc1OC (centres undefined) [Sulpiride]
0.992

// returns reported growth AUC normalised to DMSO control for input Nc1nc(NC2CC2)c2ncn([C@H]3C=C[C@@H](CO)C3)c2n1 [Abacavir sulfate]
0.989

// returns reported growth AUC normalised to DMSO control for input Cc1cnc(NC(=O)C2=C(O)c3ccccc3S(=O)(=O)N2C)s1 [Meloxicam]
0.982
